- tested_target: Rap guanine nucleotide exchange factor 3 (Homo sapiens)
- measurement_notes: Confirmatory qHTS for agonist of cAMP-regulated guanine nucleotide exchange factor 3 (EPAC1) (AID 1645881); further: nearly all actives have a fitted effect of over 75% in size;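 on activation: EPAC1 catalysed release of BODIPY-GDP from Rap1B seen as fluorescence loss; 100% = effect of cAMP agonist control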
- experimental_parameters: EPAC1 Rap1B BODIPY-GDP exchange fluorescence; series mostly up to 154 µM
Records with an inconclusive call do not appear. Activity calls are given as the source filed them. The call rests on the fitted dose curve; in most records, active means well fitted activation curve with a large enough effect; inconclusive means small, poorly fitted or top-dose-only effect; inactive means no such curve, though single readings can be large or run the other way.
Possible outcomes: active, inactive

compound | class
CC[C@@H]1c2ccccc2[C@@H]2CC[C@H]1N2c1ccccc1 | inactive
CCN(CC)c1ccc(N=Cc2c(O)n(-c3cc(OC)ccc3OC)c(=O)[nH]c2=O)cc1 | active
CCOC(=O)[C@]12Cc3ccccc3[C@H]1N(C1CCCCC1)C(=O)c1cc(OC)ccc12 | inactive
COc1cccc(C(c2nnnn2C2CCCCC2)N2CCC3(CC2)C(=O)NCN3c2ccccc2)c1OC (stereo not drawn) | inactive
Cc1ccc(OCCn2cccc2/C=C2/C(=O)NC(=O)N(Cc3ccco3)C2=O)cc1 | inactive
Cc1ccc(C)c(Cn2c(C(=O)O)c(C=O)c3ccccc32)c1 | inactive
CCOC(=O)[C@]12Cc3cc(N(C)C)ccc3[C@H]1N(Cc1ccccc1)C(=O)c1ccccc12 | inactive
CCOC(=O)c1c(-c2ccccc2)oc2ccc(OC(=O)N(C)C)cc12 | inactive
Cn1cccc1/C=C1/C(=O)NC(=S)N(Cc2ccc(F)cc2)C1=O | inactive
COCCCn1c(N)c(C(=O)NCCC(C)C)c2nc3ccccc3nc21 | inactive
Cc1oc(-c2ccccc2)nc1CN1C(=O)CN=C(c2ccccc2)c2ccccc21 | inactive
O=C1NC(=O)N(Cc2ccco2)C(=O)/C1=C/C=C/c1ccco1 | inactive
CCOC(=O)[C@]12Cc3cc(OC)ccc3[C@H]1N(C1CCCCC1)C(=O)c1ccccc12 | inactive
O=[N+]([O-])c1ccc(CN2CC=C(c3ccccc3)CC2)cc1 | inactive
Cc1cc(C=C(C#N)C#N)ccc1N1CCCC1 | active
CC(C)c1ccc(C(c2c(O)c3ccccc3oc2=O)c2c(O)c3ccccc3oc2=O)cc1 | inactive
CCN1C(=O)C(=C/C=C/c2ccco2)C(=O)N(CC)C1=S | inactive
Cc1cc2ccccn2c1C(C[N+](=O)[O-])c1c(F)cccc1Cl (stereo not drawn) | inactive
CCOC(=O)[C@]12Cc3cc(C)ccc3[C@H]1N(Cc1ccccc1)C(=O)c1ccccc12 | inactive
CCOC(=O)[C@]12Cc3cc(C)ccc3[C@H]1N(C1CCCCC1)C(=O)c1ccccc12 | inactive
CC[C@@]1(O)CC(O)c2c(cc3c(c2O)C(=O)c2c(O)ccc(O)c2C3=O)C1C(=O)OC (stereo partly drawn) | inactive
CCOC(=O)[C@]12Cc3cc(OC)ccc3[C@H]1N(Cc1ccccc1)C(=O)c1cc(F)c(F)cc12 | inactive
O=C1NCN(c2ccccc2)C12CCN(C(c1cc3ccccc3o1)c1nnnn1C1CCCCC1)CC2 (stereo not drawn) | inactive
CCc1nc2ccccc2c(=O)n1-c1ccccc1OC | inactive
CCCSc1nc2ccccc2c(=O)n1-c1ccccc1OC | inactive
Cc1ccc(CN2CCCN(Cc3ccccc3C)S2(=O)=O)cc1 | inactive
COc1ccc(CN2C(=O)NC(=O)/C(=C/c3ccc([N+](=O)[O-])s3)C2=O)cc1 | inactive
Oc1c(Cl)cccc1Cc1cc(Cl)cc(Cl)c1O | inactive

---

- Test system: CP238
- measurement_notes: qHTS profiling for inhibitors of Plasmodium falciparum proliferation (AID 504749); further: nearly all actives have a fitted effect of over 60% in size
- experimental_parameters: P. falciparum in erythrocytes, SYBR Green DNA, 72 h; series mostly up to 28.7 µM
Records with an inconclusive call do not appear. The source made the active and inactive calls. Calls follow the shape of the dose curve; as a rule, active = well fitted inhibition curve with a large enough effect; inconclusive = small, poorly fitted or top-dose-only effect; inactive = flat fitted curve, though single readings scatter.
Possible outcomes: active, inactive

compound | tested_target | class
O=C1C=C2C=CC3C[C@@]2(O1)C1CCCCN31 (stereo partly specified) | CP238 | active
C[N+]1(C)[C@@H]2CC[C@H]1CC(OC(=O)[C@@H](CO)c1ccccc1)C2 (stereo partly specified) | CP238 | inactive
C[N+]1([O-])[C@@H]2CC[C@H]1CC(OC(=O)[C@@H](CO)c1ccccc1)C2 (stereo partly specified) | CP238 | inactive
C[C@]12CC[C@H]3[C@@H](CCC4=CC(=O)CC[C@@]43C)[C@@H]1CC[C@@H]2O | CP238 | inactive
CO[C@@H](COC(N)=O)C1=C(N2CC2)C(=O)C(C)=C(N2CC2)C1=O | CP238 | active
N[C@H]1C[C@H]1c1ccccc1 | CP238 | inactive

---

- tested_target: Cytochrome P450 1A2 (Homo sapiens) (UniProt P05177)
- Sequence (P05177 whole entry, looked up): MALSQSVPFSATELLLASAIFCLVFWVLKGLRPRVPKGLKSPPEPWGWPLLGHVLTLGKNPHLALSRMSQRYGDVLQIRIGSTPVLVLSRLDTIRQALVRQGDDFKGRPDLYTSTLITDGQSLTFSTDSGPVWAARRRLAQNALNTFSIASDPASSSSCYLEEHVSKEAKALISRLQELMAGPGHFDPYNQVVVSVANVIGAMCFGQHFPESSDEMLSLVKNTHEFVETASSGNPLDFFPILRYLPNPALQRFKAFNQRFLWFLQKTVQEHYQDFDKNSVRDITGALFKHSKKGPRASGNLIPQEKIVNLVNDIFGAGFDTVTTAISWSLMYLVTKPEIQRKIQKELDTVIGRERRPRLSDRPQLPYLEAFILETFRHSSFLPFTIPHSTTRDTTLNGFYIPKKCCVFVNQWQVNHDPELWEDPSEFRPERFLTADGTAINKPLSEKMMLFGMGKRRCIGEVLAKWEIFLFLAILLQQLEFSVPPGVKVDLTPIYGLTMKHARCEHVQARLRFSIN
- measurement_notes: p450-cyp1a2 (AID 410); further: potency means the concentration at half of the fitted maximal effect
- experimental_parameters: recombinant CYP1A2, luciferin-ME demethylation, luminescence; series mostly up to 25.6 µM
Inconclusive results are not listed. Calls of active or inactive are those of the source. Calls follow the shape of the full dose curve.

item_smiles | Potency
C/C=C1\C[C@H](C)[C@@](O)(CO)C(=O)OCC2=CCN3CC[C@@H](OC1=O)[C@@H]23 | inactive
c1ccc(N2CC[C@@]3(CCCNC3)C2)cc1 | 39.8 µM (active)
CC(=O)O[C@H]1CC[C@@]2(C)C(=CC[C@@H]3[C@H]2CC[C@]2(C)C(=O)CC[C@H]32)C1 | inactive
c1cc(CN2CCCC3(CCNCC3)C2)ccn1 | inactive
Cc1nnc2ccc(-c3cccc(C(F)(F)F)c3)nn12 | 0.0794 µM (active)
Cc1ccccc1-c1cncnc1NCCc1cnc[nH]1 | 5.01 µM (active)
CC(C)NC(=O)N1CCCC2(CCN(C(=O)Oc3ccccc3)CC2)C1 | 12.6 µM (active)
CS(=O)(=O)N1CCC2(CC1)CN(Cc1ccncc1)C2 | inactive
CC(=O)OCC(=O)[C@@H]1CC[C@H]2[C@H]3CC[C@H]4C[C@@H](O)CC[C@]4(C)[C@@H]3C(=O)C[C@@]12C | inactive
CCN1C[C@]2(COC)CC[C@H](O)[C@@]34[C@@H]5C[C@H]6[C@@H](OC)[C@H]5[C@](O)(C[C@@H]6OC)[C@@](O)([C@@H](OC)[C@H]23)[C@@H]14 | inactive
C=C1[C@@H]2C[C@@]3([C@H]1O)[C@H]1C[C@@H]4[C@@]5(C)CC[C@H](O)[C@]4([C@H]1N(CC)C5)[C@H]3C[C@H]2O | inactive
CN1CCCC2(CCN(C(=O)c3csnn3)CC2)C1 | inactive
CN1CCC2(CC1)CCN(C(=O)Oc1ccccc1)CC2 | inactive
O=C(Oc1ccccc1)N1CCC2(CC1)CN(C(c1ccccc1)c1ccccc1)C2 | inactive
Cc1noc(C)c1C(=O)N1CCC2(CCCN(CC(C)C)C2)CC1 | inactive
CC(C)[C@@]1(NC(=O)[C@@H]2C[C@H]3c4cccc5[nH]cc(c45)C[C@@H]3N(C)C2)O[C@]2(O)[C@H]3CCCN3C(=O)CN2C1=O | inactive
COc1cc(N)c(Cl)cc1C(=O)N[C@@H]1CN2CCC1CC2 | inactive

---

Catalogue of compounds with associated max response
- measurement_notes: qHTS assay for cell viability of HEK293 cells (AID 743288); further: on the % scale 0 is the no-effect control and ±100 the full control effect; nearly all actives have a fitted effect of over 50% in size
- experimental_parameters: ATP luminescence (CellTiter-Glo), 18 h; active compounds read low
Inconclusive results are not listed.

compound | units_symbol | max response
ClC1=C(Cl)C2(Cl)C3C4C=CC(C4)C3C1(Cl)C2(Cl)Cl (stereo not drawn) | % | -24.9
c1ccc2c(c1)CCCC2 | % | -7.83
C=CCc1ccc2c(c1)OCO2 | % | -8.48

---

- Tested on: PC49
- measurement_notes: qHTS profiling for inhibitors of Plasmodium falciparum proliferation (AID 504749); further: nearly all actives have a fitted effect of over 60% in size; further: potency means the concentration at half of the fitted maximal effect
- experimental_parameters: P. falciparum in erythrocytes, SYBR Green DNA, 72 h; series mostly up to 28.7 µM
Inconclusive results are not listed. Activity calls are given as the source filed them. The call rests on the fitted dose curve; in most records, active means well fitted inhibition curve with a large enough effect; inconclusive means small, poorly fitted or top-dose-only effect; inactive means flat fitted curve, though single readings scatter.
observation_type: Potency

compound | observed_value
C=CC1CN2CCC1CC2C(OC(=O)OCC)c1ccnc2ccc(OC)cc12 (stereo not drawn) | inactive
C[C@@]12CC[C@H]3[C@@H](CC[C@@H]4C[C@H]5S[C@H]5C[C@]43C)[C@H]1CC[C@H]2O | inactive
C[C@]12CC[C@H](OS(=O)(=O)O)CC1=CCC1C2CC[C@]2(C)C(=O)CC[C@@H]12 (stereo partly drawn) | inactive
C[C@]12CC[C@H](O)C[C@H]1CCC1C2CC[C@]2(C)[C@@H](c3ccc(=O)oc3)C[C@H]3O[C@]132 (stereo partly drawn) | inactive
O=c1ccc2cc(O[C@H]3O[C@@H](CO)[C@@H](O)[C@@H](O)[C@@H]3O)c(O)cc2o1 | inactive
CC[C@]1(c2cccc(O)c2)CCCCN(C)C1 | inactive
O=C1C=C2C=CC3C[C@@]2(O1)C1CCCCN31 (stereo partly drawn) | 10 µM (active)
[Hg+][c]1ccccc1 | 3.55 µM (active)
CCNC[C@H](O)c1cccc(O)c1 | inactive
C[C@@H]1O[C@H](O[C@@H]2C=C3CC[C@H]4[C@@H](CC[C@]5(C)[C@@H](c6ccc(=O)oc6)CC[C@]45O)[C@@]3(C)CC2)[C@@H](O)[C@H](O)[C@@H]1O | inactive
CNc1ccc(C(=O)CC(O)CCC(C)C2OC(=O)CC(O)CC(=O)CC(O)CC(O)CC(O)CC(O)CC3(O)CC(O)C(C(=O)OC)C(CC(O[C@@H]4OC(C)C(O)C(N)C4O)/C=C/C=C/C=C/C=C/C=C/C=C/C=C/C2C)O3)cc1 (stereo partly drawn) | inactive
COc1cc(N)c(Cl)cc1C(=O)N[C@@H]1CN2CCC1CC2 | inactive
ClC1=C(Cl)C2(Cl)C3C4CC(C5OC45)C3C1(Cl)C2(Cl)Cl (stereo not drawn) | inactive

Where these numbers come from: PubChem BioAssay (NCATS)
